These data points were gathered from patent US9676754B2.

Target: PPAR gamma (Homo sapiens)
Sequence (P37231 whole entry): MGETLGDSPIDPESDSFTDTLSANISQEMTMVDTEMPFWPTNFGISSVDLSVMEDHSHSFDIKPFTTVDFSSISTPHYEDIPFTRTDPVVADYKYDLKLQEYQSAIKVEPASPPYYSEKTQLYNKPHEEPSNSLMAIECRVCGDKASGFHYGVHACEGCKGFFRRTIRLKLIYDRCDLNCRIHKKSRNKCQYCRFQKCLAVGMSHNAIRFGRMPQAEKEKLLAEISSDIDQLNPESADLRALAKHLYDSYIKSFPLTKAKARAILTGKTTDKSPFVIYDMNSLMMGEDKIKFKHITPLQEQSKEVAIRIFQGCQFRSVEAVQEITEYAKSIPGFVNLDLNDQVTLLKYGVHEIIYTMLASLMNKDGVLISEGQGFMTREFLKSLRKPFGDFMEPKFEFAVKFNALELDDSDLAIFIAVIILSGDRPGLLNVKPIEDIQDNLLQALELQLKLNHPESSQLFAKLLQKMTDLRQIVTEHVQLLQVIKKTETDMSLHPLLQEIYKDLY
Test: Target selectivity counterscreen, PPAR γ reporter assay
Settings: receptor agonist at ~EC80
pIC50: −log10 of the molar value.
observed_property: pIC50

In [3]: df
Out[3]:
                              smiles_string  observed_property  result_value
0  CCOc1ccc(-c2cccc(CCCc3nn(Cc4ccc(C(C)(C)C)cc4)c(=O)n3CC)c2)cc1CC(=O)O              pIC50          4.40

* * *

Target: Human PPARα (Homo sapiens, UniProt Q07869)
Construct: host or cells: proprietary non-human mammalian cells
Sequence (Q07869 whole entry): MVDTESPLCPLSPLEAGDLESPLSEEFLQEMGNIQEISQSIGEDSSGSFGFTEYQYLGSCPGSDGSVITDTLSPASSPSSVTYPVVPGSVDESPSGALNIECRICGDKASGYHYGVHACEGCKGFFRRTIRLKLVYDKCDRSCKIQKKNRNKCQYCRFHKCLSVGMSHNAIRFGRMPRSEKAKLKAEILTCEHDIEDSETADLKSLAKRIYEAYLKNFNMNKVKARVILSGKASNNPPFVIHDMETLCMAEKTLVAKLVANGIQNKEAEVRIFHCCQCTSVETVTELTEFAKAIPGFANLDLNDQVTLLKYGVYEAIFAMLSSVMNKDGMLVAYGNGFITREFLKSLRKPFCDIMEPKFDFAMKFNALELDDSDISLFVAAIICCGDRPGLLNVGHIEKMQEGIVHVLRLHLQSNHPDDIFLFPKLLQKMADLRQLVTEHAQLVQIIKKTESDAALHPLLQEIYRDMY
Assay: Human PPARα Reporter Assay (luciferase)
Assay type: cell-based
Settings: antagonist activity, luciferase reporter cells, overnight incubation; read-out: Human PPARα Reporter Assay-Luciferase IC50
pIC50: −log10 of the molar value.
observed_property: pIC50

>>> df
                              smiles_string  observed_property  result_value
0  CCOc1ccc(-c2nccc(CCCc3nn(Cc4ccc(C(C)(C)C)cc4)c(=O)n3CC)n2)cc1CC(=O)O              pIC50          5.91
1  CCn1c(CCCc2cccc(-c3ccc(C4(C(=O)O)CC4)cc3)c2)nn(Cc2ccc(C(C)(C)C)cc2)c1=O              pIC50          6.31
2  CCn1c(CCCc2cccc(-c3ccc(OC)c(CCC(=O)O)c3)c2)nn(Cc2ccc(C(C)(C)C)cc2)c1=O              pIC50          6.21
3  CCOc1ccc(CC(=O)O)cc1-c1cccc(CCCc2nn(Cc3ccc(C(C)(C)C)cc3)c(=O)n2CC)c1              pIC50          6.12
4  CCn1c(CCCc2cccc(-c3ccc(C)c(C4(C(=O)O)CC4)c3)c2)nn(Cc2ccc(C(C)(C)C)cc2)c1=O              pIC50          6.63
5  CCOc1ccc(-c2cccc(CCCc3nn(Cc4ccc(C(C)(C)C)cc4)c(=O)n3CC)c2)cc1C(=O)O              pIC50          6.68
6  CCn1c(CCCc2cccc(-c3cccc(C(=O)O)c3)c2)nn(Cc2ccc(C(C)(C)C)cc2)c1=O              pIC50          5.88
